Test system: Staphylococcus xylosus
Entries and their measured MIC follow.
// units = µM; emit number, no label

The following molecules have reported results that may help.
Chemical smiles | Property | Result number
CC(C)C[C@H](NC(=O)[C@H](CC(C)C)NC(=O)[C@H](CC(C)C)NC(=O)[C@H](CC(C)C)NC(=O)[C@H](CC(C)C)NC(=O)[C@H](CCCN=C(N)N)NC(=O)[C@H](CCCN=C(N)N)NC(=O)[C@@H](N)CCCN=C(N)N)C(=O)N[C@@H](CCCN=C(N)N)C(=O)N[C@@H](CCCN=C(N)N)C(=O)N[C@@H](CCCN=C(N)N)C(=O)O | MIC | 1
NCCCC[C@H](NC(=O)[C@H](CCCCN)NC(=O)[C@H](CCCCN)NC(=O)[C@H](Cc1ccccc1)NC(=O)[C@H](Cc1ccccc1)NC(=O)[C@H](Cc1ccccc1)NC(=O)[C@H](Cc1ccccc1)NC(=O)[C@H](Cc1ccccc1)NC(=O)[C@H](CCCCN)NC(=O)[C@H](CCCCN)NC(=O)[C@@H](N)CCCCN)C(=O)O | MIC | 4

What value of MIC on Staphylococcus xylosus does CC[C@H](C)[C@H](NC(=O)[C@H](CC(C)C)NC(=O)[C@H](CCCCN)NC(=O)[C@H](CCCN=C(N)N)NC(=O)[C@@H](N)CCCCN)C(=O)N[C@@H](CC(C)C)C(=O)N[C@@H](CCCCN)C(=O)N[C@@H](CCCN=C(N)N)C(=O)N[C@H](C(=O)N[C@@H](CC(C)C)C(=O)N[C@H](C(=O)N[C@@H](CCCCN)C(=O)N[C@@H](CCCN=C(N)N)C(=O)N[C@@H](CCCCN)C(=O)O)[C@@H](C)CC)[C@@H](C)CC have?
8

---

Reported MIC values, Micrococcus luteus.

Endpoint output: MIC of CC[C@H](C)[C@H](NC(=O)[C@H](CCCN=C(N)N)NC(=O)[C@H](C)NC(=O)[C@H](CC(C)C)NC(=O)[C@H](CCCN=C(N)N)NC(=O)CNC(=O)[C@H](Cc1ccccc1)NC(=O)[C@@H](NC(=O)[C@H](CO)NC(=O)CNC(=O)[C@H](CC(C)C)NC(=O)CN)C(C)C)C(=O)N[C@@H](CC(C)C)C(=O)NCC(=O)N[C@@H](CCCN=C(N)N)C(=O)N[C@H](C(=O)N[C@H](C(=O)N1CCC[C@H]1C(=O)N[C@@H](CCCCN)C(=O)N[C@H](C(N)=O)C(C)C)[C@@H](C)CC)C(C)C [GLGSVFGRLARILGRVIPKV] . Value?
0.5 µM

Endpoint output: MIC of C[C@H](NC(=O)[C@H](CCCCN)NC(=O)[C@H](Cc1c[nH]c2ccccc12)NC(=O)[C@H](Cc1c[nH]c2ccccc12)NC(=O)CNC(=O)[C@@H]1CCCN1C(=O)[C@H](CCCCN)NC(=O)[C@H](CCCCN)NC(=O)CN)C(=O)N[C@@H](CCCCN)C(N)=O [GKKPGWWKAK] . Value?
≥ 105 µM

Endpoint output: MIC of CC[C@H](C)[C@H](NC(=O)[C@H](CCCCN)NC(=O)[C@H](CO)NC(=O)[C@H](C)NC(=O)[C@@H](NC(=O)[C@H](CCCCN)NC(=O)[C@H](CCCCN)NC(=O)[C@@H](NC(=O)[C@@H](NC(=O)[C@H](CC(=O)O)NC(=O)[C@H](Cc1ccccc1)NC(=O)[C@H](CC(C)C)NC(=O)CN)C(C)C)[C@@H](C)CC)C(C)C)C(=O)N[C@@H](CCCCN)C(=O)NCC(=O)N[C@@H](CC(C)C)C(N)=O [GLFDVIKKVASKIKGL] . Value?
≥ 58.3 µM

---

Reported MIC values, Escherichia coli DH5alpha.

The following molecules have reported results that may help.
Chemical smiles | Property | Result
CC[C@H](C)[C@H](NC(=O)[C@H](CCCCN)NC(=O)[C@H](CCCN=C(N)N)NC(=O)[C@@H](N)CCCCN)C(=O)N[C@@H](CCCCN)C(=O)N[C@@H](CCCN=C(N)N)C(=O)N[C@@H](CCCCN)C(=O)O | MIC | ≥ 64 µM
CC[C@H](C)[C@H](NC(=O)[C@H](CCCCN)NC(=O)[C@H](CCCCN)NC(=O)[C@@H](NC(=O)[C@@H](NC(=O)[C@H](CCCCN)NC(=O)[C@H](CCCCN)NC(=O)[C@@H](NC(=O)[C@@H](NC(=O)CN)[C@@H](C)CC)[C@@H](C)CC)[C@@H](C)CC)[C@@H](C)CC)C(N)=O | MIC | ≥ 125 µM

Would you kindly look at the next entry?
What value of MIC on Escherichia coli DH5alpha does CC[C@H](C)[C@H](NC(=O)[C@H](CC(C)C)NC(=O)[C@H](CCCCN)NC(=O)[C@H](CCCN=C(N)N)NC(=O)[C@@H](N)CCCCN)C(=O)N[C@@H](CC(C)C)C(=O)N[C@@H](CCCCN)C(=O)N[C@@H](CCCN=C(N)N)C(=O)N[C@H](C(=O)N[C@@H](CC(C)C)C(=O)N[C@H](C(=O)N[C@@H](CCCCN)C(=O)N[C@@H](CCCN=C(N)N)C(=O)N[C@@H](CCCCN)C(=O)O)[C@@H](C)CC)[C@@H](C)CC have?
16 µM

---

Reported MIC values, Escherichia coli ATCC 25922.
Property: MIC (µM)

Chemical smiles | Uom | MIC
NCCCC[C@H](NC(=O)[C@H](CCCCN)NC(=O)[C@H](Cc1c[nH]c2ccccc12)NC(=O)[C@H](Cc1c[nH]c2ccccc12)NC(=O)[C@H](CCCCN)NC(=O)[C@H](Cc1ccccc1)NC(=O)[C@H](CCCN=C(N)N)NC(=O)[C@H](Cc1c[nH]c2ccccc12)NC(=O)[C@@H](N)CCCN=C(N)N)C(=O)O | µM | 26.4

I: CC[C@H](C)[C@H](NC(=O)[C@@H](NC(=O)[C@@H]1CCCN1C(=O)[C@H](CC(C)C)NC(=O)[C@@H](N)Cc1ccccc1)[C@@H](C)CC)C(=O)NCC(=O)N[C@@H](CCCCN)C(=O)N[C@@H](CC(C)C)C(=O)N[C@@H](CC(C)C)C(=O)N[C@@H](CO)C(=O)NCC(=O)O
II: CC[C@H](C)[C@H](NC(=O)[C@H](CC(C)C)NC(=O)[C@H](CCCCN)NC(=O)[C@H](CC(C)C)NC(=O)[C@H](CC(C)C)NC(=O)CN)C(=O)N[C@@H](CCCCN)C(=O)N[C@H](C(=O)N[C@@H](CC(C)C)C(=O)N[C@@H](CC(C)C)C(N)=O)[C@@H](C)O
Return label of the item with the larger MIC. Candidates: I , II . Answer = label.
I

---

Test system: Pseudomonas aeruginosa
Test details: ≥ marks a high value that may be exact or a test limit, other limits are often not marked, values filed in µg/mL are converted to µM
Property: MIC (µM)
// units = µM; emit number, no label

Endpoint output: MIC of CC(C)C[C@H](NC(=O)[C@H](CCCCN)NC(=O)[C@H](CCCN=C(N)N)NC(=O)[C@H](Cc1ccccc1)NC(=O)[C@H](Cc1ccccc1)NC(=O)[C@H](CCCCN)NC(=O)[C@H](CCCCN)NC(=O)[C@H](Cc1ccccc1)NC(=O)[C@H](CCCN=C(N)N)NC(=O)[C@H](CCCCN)NC(=O)[C@@H](NC(=O)[C@@H](N)CC(C)C)C(C)C)C(=O)N[C@@H](CCCCN)C(=O)N[C@@H](CCCCN)C(=O)N[C@@H](CO)C(=O)N[C@H](C(=O)N[C@@H](CCCCN)C(=O)N[C@@H](CCCCN)C(N)=O)C(C)C . Value?
3.46

---

Reported MIC values, Escherichia coli UB1005.
// units = µM; emit number, no label

Chemical smiles | MIC, µM
CC[C@H](C)[C@H](NC(=O)[C@H](CCCN=C(N)N)NC(=O)[C@H](CC(C)C)NC(=O)[C@@H](NC(=O)[C@@H](NC(=O)[C@H](CCCN=C(N)N)NC(=O)[C@H](C)NC(=O)[C@H](C)N)[C@@H](C)CC)[C@@H](C)CC)C(=O)N[C@@H](CCCN=C(N)N)C(=O)N[C@@H](Cc1ccccc1)C(=O)N[C@@H](CCCN=C(N)N)C(N)=O | 4

Would you kindly look at the next entry?
Endpoint output: MIC of CC[C@H](C)[C@H](NC(=O)[C@H](Cc1ccccc1)NC(=O)[C@H](CCCN=C(N)N)NC(=O)[C@@H](N)CC(C)C)C(=O)N[C@@H](CC(C)C)C(=O)N[C@@H](Cc1c[nH]c2ccccc12)C(=O)N[C@@H](Cc1c[nH]c2ccccc12)C(=O)N[C@@H](CCCCN)C(=O)N[C@@H](CCCN=C(N)N)C(=O)O . Value?
3.2

---

Reported MIC values, Candida albicans.
// units = µM; emit number, no label

The following molecules have reported results that may help.
Chemical smiles | Uom | Result number
CC[C@H](C)[C@H](NC(=O)[C@H](CCCN=C(N)N)NC(=O)[C@H](CC(C)C)NC(=O)[C@H](CCCN=C(N)N)NC(=O)[C@@H](N)C(C)C)C(=O)N[C@@H](CCCN=C(N)N)C(=O)N[C@H](C(=O)N[C@@H](C)C(=O)N[C@H](C(=O)N[C@H](C(=O)N[C@@H](CCCN=C(N)N)C(=O)N[C@@H](CCCCN)C(N)=O)[C@@H](C)CC)C(C)C)C(C)C | µM | 2.03
CC(C)C[C@H](NC(=O)[C@H](CCCCN)NC(=O)[C@H](CCCN=C(N)N)NC(=O)[C@H](Cc1c[nH]c2ccccc12)NC(=O)[C@@H](N)CC(N)=O)C(=O)N[C@@H](Cc1ccc(O)cc1)C(=O)N[C@@H](CCCN=C(N)N)C(=O)N[C@@H](CCCN=C(N)N)C(=O)N[C@@H](CCCCN)C(=O)O | µM | 86.5

Endpoint output: MIC of NCCCC[C@H](N)C(=O)N[C@@H](CCCN=C(N)N)C(=O)N[C@@H](Cc1c[nH]c2ccccc12)C(=O)N[C@@H](Cc1c[nH]c2ccccc12)C(=O)N[C@@H](Cc1c[nH]c2ccccc12)C(=O)N[C@@H](Cc1c[nH]c2ccccc12)C(=O)N[C@@H](CCCN=C(N)N)C(=O)N[C@@H](Cc1ccccc1)C(=O)N[C@@H](CCCN=C(N)N)C(=O)O . Value?
5.9

Hello, the source for this data is DBAASP, in case you need it.
